Data provenance: ChEMBL document CHEMBL3525911

- System Under Test: Solute carrier organic anion transporter family member 1B1 (Homo sapiens)
- Test Summary: Inhibition of OATP1B1 (unknown origin) expressed in HEK293 cells using pitavastatin substrate
- Assay type: ADME, cell-based
Measured Quantity: pIC50
By convention, pIC50 is the negative base-10 log of a molar concentration.

Exercise: Under Solute carrier organic anion transporter family member 1B1 (Homo sapiens): pIC50 value of Cc1ccc(C)c(OCCCC(C)(C)C(=O)O)c1 ?
Key: 4.42

* * *

- System Under Test: Solute carrier organic anion transporter family member 1B1 (Homo sapiens)
- Sequence (Q9Y6L6 whole entry): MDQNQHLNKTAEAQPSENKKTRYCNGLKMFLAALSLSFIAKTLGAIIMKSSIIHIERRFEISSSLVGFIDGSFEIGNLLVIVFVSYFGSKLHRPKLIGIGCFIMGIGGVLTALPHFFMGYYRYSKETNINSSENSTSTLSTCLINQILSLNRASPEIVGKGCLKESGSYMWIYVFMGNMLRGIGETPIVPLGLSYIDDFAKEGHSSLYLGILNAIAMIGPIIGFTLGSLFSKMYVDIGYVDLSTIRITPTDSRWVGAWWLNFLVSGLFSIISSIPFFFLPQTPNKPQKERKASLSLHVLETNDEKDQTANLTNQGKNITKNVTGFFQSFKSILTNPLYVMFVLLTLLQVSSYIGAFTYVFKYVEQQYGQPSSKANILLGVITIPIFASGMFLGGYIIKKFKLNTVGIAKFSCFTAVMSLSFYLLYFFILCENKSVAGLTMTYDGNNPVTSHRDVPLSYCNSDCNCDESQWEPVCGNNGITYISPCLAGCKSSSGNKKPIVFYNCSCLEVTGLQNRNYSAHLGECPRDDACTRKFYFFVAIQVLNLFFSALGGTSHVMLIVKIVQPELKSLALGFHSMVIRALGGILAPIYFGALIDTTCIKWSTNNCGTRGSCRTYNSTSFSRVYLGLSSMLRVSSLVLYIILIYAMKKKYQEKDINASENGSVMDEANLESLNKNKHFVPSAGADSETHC
- Test Summary: Inhibition of OATP1B1 (unknown origin) expressed in HEK293 cells using estrone-3-sulfate substrate
- Type: ADME, cell-based
Measured Quantity: IC50 (µM)
Please respond with the number in µM and leave the unit unwritten.

Cc1ccc(C)c(OCCCC(C)(C)C(=O)O)c1	130

// moving on: another record for IC50
Exercise: Which IC50 value belongs to CO[C@H]1/C=C/O[C@@]2(C)Oc3c(C)c(O)c4c(O)c(c(/C=N/N5CCN(C)CC5)c(O)c4c3C2=O)NC(=O)/C(C)=C\C=C\[C@H](C)[C@H](O)[C@@H](C)[C@@H](O)[C@@H](C)[C@H](OC(C)=O)[C@@H]1C ?
Key: 2.3
